Molecular target: T1, human monocarboxylate transporter 1 (MCT1) (human, UniProt P53985 1-500)
T1 construct: Multi-pass transmembrane transporter, endogenous on HEK WT / HEK293T cells and on primary human T and B cells in the assays; also called human MCT1; SLC16A1
T1 sequence: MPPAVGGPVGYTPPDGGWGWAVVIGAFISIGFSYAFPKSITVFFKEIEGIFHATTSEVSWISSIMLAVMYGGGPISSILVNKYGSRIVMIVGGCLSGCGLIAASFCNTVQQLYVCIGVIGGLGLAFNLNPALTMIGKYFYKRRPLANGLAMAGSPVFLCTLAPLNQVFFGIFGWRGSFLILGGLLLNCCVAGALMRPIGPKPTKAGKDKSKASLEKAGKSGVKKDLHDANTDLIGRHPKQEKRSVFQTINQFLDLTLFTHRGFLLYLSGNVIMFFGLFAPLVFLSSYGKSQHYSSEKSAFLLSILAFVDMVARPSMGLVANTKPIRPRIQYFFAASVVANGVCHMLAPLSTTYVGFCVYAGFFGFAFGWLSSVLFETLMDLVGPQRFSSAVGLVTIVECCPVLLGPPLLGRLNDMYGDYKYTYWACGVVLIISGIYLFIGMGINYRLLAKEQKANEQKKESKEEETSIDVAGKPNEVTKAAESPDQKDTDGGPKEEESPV
Assay: competition MSD binding assay, antibody titrated with HEK WT cells expressing MCT1, apparent KD, screening at 25 C
observable: Kd (nM)
Write it as a number; the unit nM goes unstated.

Input: Quick one: Kd for anti-human MCT1 antibody Ab10 (antibody, human IgG1, kappa, V domains shown, IgG1EN backbone) VH: QVQLVQSGAEVKKPGASVKVSCTVSGRSLTGYHLQWVRQAPGQGLEWMGFIRSSGNTEYNSEFKSRVTMTRDTSTSTVYMELSSLRSEDTAVYYCARNRWYHGTYYSPGYYVMDAWGQGTLVTVSS VL: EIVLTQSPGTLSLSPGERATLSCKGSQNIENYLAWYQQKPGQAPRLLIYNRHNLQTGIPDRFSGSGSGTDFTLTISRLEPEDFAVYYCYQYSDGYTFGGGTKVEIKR ?
Output: 0.85

Continuing:
Input: Kd for anti-human MCT1 antibody Ab8 (antibody, human IgG1, kappa, V domains shown, IgG1EN backbone) VH: QVQLVQSGAEVKKPGASVKVSCTVSGRSLTNYHLQWVRQAPGQGLEWMGFIRSSGNTIYNSEFKSRVTMTRDTSTSTVYMELSSLRSEDTAVYYCARNRWYHGTYYSPGYYVMDAWGQGTLVTVSS VL: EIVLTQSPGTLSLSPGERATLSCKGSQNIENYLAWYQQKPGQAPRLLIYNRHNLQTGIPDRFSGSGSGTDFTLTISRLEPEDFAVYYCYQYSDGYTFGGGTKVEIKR ?
Output: 0.55

Input: Reported Kd for anti-human MCT1 antibody Ab12 (antibody, human IgG1, kappa, V domains shown, IgG1EN backbone) VH: QVQLVQSGAEVKKPGASVKVSCTVSGRSLTNYHLVWVRQAPGQGLEWMGFIRSSGNTEYNSEFKSRVTMTRDTSTSTVYMELSSLRSEDTAVYYCARNRWYHGTYYSPGYYVMDAWGQGTLVTVSS VL: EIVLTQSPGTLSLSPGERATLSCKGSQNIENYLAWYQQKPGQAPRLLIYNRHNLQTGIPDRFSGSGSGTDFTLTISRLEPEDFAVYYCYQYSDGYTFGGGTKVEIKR : what is it?
Output: 1.64

Input: Quick one: Kd for anti-human MCT1 antibody Ab15 (antibody, human IgG1, kappa, V domains shown, IgG1EN backbone) VH: QVQLVQSGAEVKKPGASVKVSCTVSGRSLTNYHLQWVRQAPGQGLEWMGFIRSSGNTEYNSEFKSRVTMTRDTSTSTVYMELSSLRSEDTAVYYCARNLWYHGTYYSPGYYVMDAWGQGTLVTVSS VL: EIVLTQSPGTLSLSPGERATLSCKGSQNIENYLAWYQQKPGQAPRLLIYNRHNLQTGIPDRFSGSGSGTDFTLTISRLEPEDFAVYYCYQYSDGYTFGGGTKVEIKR ?
Output: 1.96

Input: Need Kd, item anti-human MCT1 antibody Ab17 (antibody, human IgG1, kappa, V domains shown, IgG1EN backbone) VH: QVQLVQSGAEVKKPGASVKVSCTVSGRSLTNIHLQWVRQAPGQGLEWMGFIRSSGNTEYNSEFKSRVTMTRDTSTSTVYMELSSLRSEDTAVYYCARNRWYHGTYYSPGYYVMDAWGQGTLVTVSS VL: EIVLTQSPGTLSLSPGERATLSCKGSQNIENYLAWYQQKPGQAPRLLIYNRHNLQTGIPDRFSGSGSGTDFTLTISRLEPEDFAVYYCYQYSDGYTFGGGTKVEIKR
Output: 1.04

Data provenance: patent US20230111363A1
